Assay: Cytotoxicity against human prostate cancer cells after 48 hrs by SRB assay
Assay type: functional
Conditions: Cancer cell lines
The entries below are paired with their reported LC50.
All answers are understood in µM, so give the number only.

- MOLECULE: "O=C1N=C(N2N=C(c3ccccc3)CC2c2ccccc2O)S/C1=C1/C(=O)Nc2ccc(Br)cc21 (centres undefined)"
  LC50 (µM): 7.68
- MOLECULE: "COc1ccc(-c2cc(-c3ccc(Cl)cc3)n(C3C(=O)Nc4ccc(Cl)cc43)n2)cc1 (centres undefined)"
  LC50 (µM): 62.4
- MOLECULE: "O=C1N=C(N2N=C(c3ccccc3)CC2c2ccccc2O)S/C1=C1/C(=O)Nc2ccccc21 (centres undefined)"
  LC50 (µM): 54.7

Proceed to the following item.
Ask: Recorded LC50 for COc1ccc(C2CC(c3ccccc3)=NN2C2=NC(=O)/C(=C3\C(=O)Nc4ccc(Br)cc43)S2)cc1 (centres undefined) , please?
Result: 39.5

====

Test: Cytotoxicity against human renal cancer cells after 48 hrs by SRB assay
Assay type: functional
Settings: Cancer cell lines
The entries below are paired with their reported GI50.
All answers are understood in nM, so give the number only.

Sample answers from the record:
- COMPOUND: "COc1ccc(C2CC(c3ccccc3)=NN2C2=NC(=O)/C(=C3\\C(=O)Nc4ccc(Br)cc43)S2)cc1 (configuration not stated)"
  OBSERVABLE: "GI50"
  UNIT_STRING: "nM"
  OBSERVED_VALUE: 180
- COMPOUND: "COc1ccc(C2=NN(C3=NC(=O)/C(=C4\\C(=O)Nc5ccc(Br)cc54)S3)C(c3ccc(OC)cc3)C2)cc1 (configuration not stated)"
  OBSERVABLE: "GI50"
  UNIT_STRING: "nM"
  OBSERVED_VALUE: 200
- COMPOUND: "COc1ccc(-c2cc(-c3ccc(Cl)cc3)n(C3C(=O)Nc4ccc(Br)cc43)n2)cc1 (configuration not stated)"
  OBSERVABLE: "GI50"
  UNIT_STRING: "nM"
  OBSERVED_VALUE: 9200
- COMPOUND: "O=C1N=C(N2N=C(c3ccccc3)CC2c2ccccc2O)S/C1=C1/C(=O)Nc2ccccc21 (configuration not stated)"
  OBSERVABLE: "GI50"
  UNIT_STRING: "nM"
  OBSERVED_VALUE: 2070
- COMPOUND: "Cc1ccc2c(c1)/C(=C1\\SC(N3N=C(c4ccccc4)CC3c3ccc(Cl)cc3)=NC1=O)C(=O)N2 (configuration not stated)"
  OBSERVABLE: "GI50"
  UNIT_STRING: "nM"
  OBSERVED_VALUE: 240

Ask: Recorded GI50 for COc1ccc(C2CC(c3ccc4ccccc4c3)=NN2C2=NC(=O)/C(=C3\C(=O)Nc4ccccc43)S2)cc1 (configuration not stated) , please?
Result: 870

Ask: Recorded GI50 for COc1ccc(C2=NN(C3=NC(=O)/C(=C4\C(=O)Nc5ccc(Cl)cc54)S3)C(c3ccc(OC)cc3)C2)cc1 (configuration not stated) , please?
Result: 190

Ask: Recorded GI50 for O=C1N=C(N2N=C(c3ccccc3)CC2c2ccc(Cl)cc2)S/C1=C1/C(=O)Nc2ccccc21 (configuration not stated) , please?
Result: 270

Ask: Recorded GI50 for COc1ccc(C2=NN(C3=NC(=O)/C(=C4\C(=O)Nc5ccccc54)S3)C(c3ccc(OC)cc3)C2)cc1 (configuration not stated) , please?
Result: 85200

Ask: Recorded GI50 for CN(C)c1ccc(-c2cc(-c3ccccc3)nn2C2C(=O)Nc3ccccc32)cc1 (configuration not stated) , please?
Result: 17400

Ask: Recorded GI50 for O=C1N=C(N2N=C(c3ccccc3)CC2c2ccccc2O)S/C1=C1/C(=O)Nc2ccc(Br)cc21 (configuration not stated) , please?
Result: 230

Ask: Recorded GI50 for O=C1Nc2ccc(Br)cc2C1n1nc(-c2ccc3ccccc3c2)cc1-c1ccc(Cl)cc1 (configuration not stated) , please?
Result: 2500

Ask: Recorded GI50 for COc1ccc(C2CC(c3ccc4ccccc4c3)=NN2C2=NC(=O)/C(=C3\C(=O)Nc4ccc(Br)cc43)S2)cc1 (configuration not stated) , please?
Result: 64

Ask: Recorded GI50 for CN(C)c1ccc(C2CC(c3ccccc3)=NN2C2=NC(=O)/C(=C3\C(=O)Nc4ccccc43)S2)cc1 (configuration not stated) , please?
Result: 6370

Ask: Recorded GI50 for COc1ccc(C2CC(c3ccccc3)=NN2C2=NC(=O)/C(=C3\C(=O)Nc4ccccc43)S2)cc1 (configuration not stated) , please?
Result: 2010

Ask: Recorded GI50 for CN(C)c1ccc(C2CC(c3ccccc3)=NN2C2=NC(=O)/C(=C3\C(=O)Nc4ccc(Cl)cc43)S2)cc1 (configuration not stated) , please?
Result: 190

Ask: Recorded GI50 for COc1ccc(C2=NN(C3=NC(=O)/C(=C4\C(=O)Nc5ccc(Br)cc54)S3)C(c3ccc(Cl)cc3)C2)cc1 (configuration not stated) , please?
Result: 140
